- TESTED SYSTEM: human PAH with the R408W mutation (Homo sapiens, UniProt P00439, R408W)
- Construct: expressed in transfected cells
- Sequence (P00439 whole entry R408W): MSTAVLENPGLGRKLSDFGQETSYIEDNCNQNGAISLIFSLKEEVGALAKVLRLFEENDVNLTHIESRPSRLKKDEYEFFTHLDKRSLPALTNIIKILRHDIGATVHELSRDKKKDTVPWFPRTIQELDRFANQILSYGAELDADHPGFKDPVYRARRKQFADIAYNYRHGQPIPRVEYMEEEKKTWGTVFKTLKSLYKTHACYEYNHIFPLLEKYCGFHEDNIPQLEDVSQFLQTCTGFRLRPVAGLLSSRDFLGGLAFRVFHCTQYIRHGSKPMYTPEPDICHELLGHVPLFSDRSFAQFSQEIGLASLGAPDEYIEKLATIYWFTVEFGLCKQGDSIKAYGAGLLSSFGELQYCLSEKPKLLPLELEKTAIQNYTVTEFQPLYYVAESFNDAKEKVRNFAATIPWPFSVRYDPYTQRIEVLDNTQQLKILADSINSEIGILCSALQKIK
- PROTOCOL: Cell Based Phenylalanine Flux Assay;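 also: after compound treatment, cells received sepiapterin plus isotope-labelled Phenylalanine for 4 hours, then labelled Tyrosine in the medium was quantified, 10-point 2-fold dilution series run in duplicate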
- MEASUREMENT SETUP: A375 cells expressing human PAH R408W; 24 hrs compound incubation; 13C-Tyrosine by LC-MS; average where tested multiple times; read-out: AC50
VALUE KIND: AC50

COMPOUND	AC50
Cc1cc(C(=O)N2CCc3[nH]cnc3[C@H]2c2cc3c(F)cccn3n2)n(C)n1 [Example 2390]	1000 to 5000 nM

Q: Please supply the value of reported AC50 for the item Nc1cnc(N2CCc3[nH]cnc3[C@H]2c2cc3c(C(F)F)cccn3n2)nc1 [Example 1852]
Result: 500 to 1000 nM

Q: Please supply the value of reported AC50 for the item Nc1cnc(N2CCc3[nH]cnc3[C@@H]2c2cc3c(C(F)F)cccn3n2)nc1 [Example 1853]
Result: 1000 to 5000 nM

Q: Please supply the value of reported AC50 for the item Cc1ncccc1-c1nnc(N2CCc3[nH]cnc3[C@@H]2c2cc3c(C)cccn3n2)o1 [Example 2207]
Result: > 5000 nM
